Reported Emax values follow for various molecules
target: hGLP1 receptor (Homo sapiens); construct: expressed in transfected cells; host or cells: HEK (human embryonic kidney) cells co-expressing hGLP1 receptor and CRE-Luciferase; experiment: GLP-1 receptor agonism assay (HTRF cAMP, HEK cells co-expressing hGLP1 receptor and CRE-Luciferase); type: cell-based; conditions: HEK293; Table 6 potency profile
Sequence (P43220 24-463): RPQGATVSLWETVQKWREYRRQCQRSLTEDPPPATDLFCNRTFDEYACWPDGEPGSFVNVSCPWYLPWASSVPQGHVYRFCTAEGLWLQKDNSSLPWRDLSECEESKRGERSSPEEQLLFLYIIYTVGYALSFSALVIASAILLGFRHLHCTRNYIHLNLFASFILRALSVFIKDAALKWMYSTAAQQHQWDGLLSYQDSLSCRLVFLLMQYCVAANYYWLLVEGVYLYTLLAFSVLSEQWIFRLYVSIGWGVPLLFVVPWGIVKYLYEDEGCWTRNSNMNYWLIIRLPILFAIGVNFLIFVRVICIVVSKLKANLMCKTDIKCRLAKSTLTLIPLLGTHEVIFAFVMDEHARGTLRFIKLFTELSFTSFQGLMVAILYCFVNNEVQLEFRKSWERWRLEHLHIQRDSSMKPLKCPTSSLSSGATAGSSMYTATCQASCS
Square brackets hold non-standard residues; d marks the D form. Peptide text beside a SMILES is read from it. Bip = N[C@@H](Cc1ccc(-c2ccccc2)cc1)C(=O)O; Phe(2-F) = N[C@@H](Cc1ccccc1F)C(=O)O; Aib = CC(C)(N)C(=O)O
Numeric answer only, unit % assumed.

# count of solved cases: 2
1. Cc1ccccc1C[C@H](NC(=O)[C@@H](NC(=O)CNC(=O)[C@H](CCC(=O)O)NC(=O)C(C)(C)NC(=O)[C@@H](N)Cc1c[nH]cn1)[C@@H](C)O)C(=O)N[C@H](C(=O)N[C@@H](CO)C(=O)N[C@@H](CC(=O)O)C(=O)N[C@@H](Cc1ccc(-c2ccccc2)cc1)C(=O)N[C@@H](Cc1ccc(-c2ccccc2)cc1)C(N)=O)[C@@H](C)O | 98.6
2. C[C@@H](O)[C@H](NC(=O)CNC(=O)[C@H](CCC(=O)O)NC(=O)C(C)(C)NC(=O)[C@@H](N)Cc1c[nH]cn1)C(=O)N[C@@H](CCc1ccccc1)C(=O)N[C@H](C(=O)N[C@@H](CO)C(=O)N[C@@H](CC(=O)O)C(=O)N[C@@H](Cc1ccc(-c2ccccc2)cc1)C(=O)N[C@@H](Cc1ccc(-c2ccccc2)cc1)C(N)=O)[C@@H](C)O | 110

API: the following record is the query input.
Lab note: C[C@H](NC(=O)[C@H](CO)NC(=O)[C@@H](NC(=O)[C@H](Cc1ccccc1F)NC(=O)[C@@H](NC(=O)CNC(=O)[C@H](CCC(=O)O)NC(=O)C(C)(C)NC(=O)[C@@H](N)Cc1c[nH]cn1)[C@@H](C)O)[C@@H](C)O)C(=O)N[C@@H](Cc1ccc(-c2ccccc2)cc1)C(=O)N[C@@H](Cc1ccc(-c2ccccc2)cc1)C(N)=O [RXL-3007] (H-H[Aib]EGT[Phe(2-F)]TSA[Bip][Bip]-NH2) gave Emax of 132
